ASSAY OVERVIEW: A CellTox Green Cytotoxicity Assay to monitor cytotoxicity in HepG2 cells - 24 hour (AID 1224878); also: nearly all actives have a fitted effect of over 45% in size
TEST SETTINGS: CellTox Green fluorescence; series mostly up to 76.8 µM
Inconclusive results are not listed. Activity calls are given as the source filed them. Calls follow the shape of the dose curve; as a rule, active = well fitted activation curve with a large enough effect in the repeat runs; inconclusive = weak or mixed curves; inactive = flat fitted curve, though single readings scatter.
Result category, one only: True for active, False for inactive

These solved cases illustrate the format of a correct answer.
CNCCCN1c2ccccc2CCc2ccccc21; True
COc1cc2nc(N(C)CCCNC(=O)C3CCCO3)nc(N)c2cc1OC (stereo unspecified); False

input: Check the results log: what was the call for CCN(CC)c1ccc2c(-c3ccccc3C(=O)O)c3ccc(=[N+](CC)CC)cc-3oc2c1 ?
output: True

input: Check the results log: what was the call for Clc1ccc(Cn2c(CN3CCCC3)nc3ccccc32)cc1 ?
output: False

input: Check the results log: what was the call for CCC(C)(C)CC ?
output: False

* * *

MEASURED ON: Nuclear receptor subfamily 1 group I member 3 (Homo sapiens) (UniProt Q14994)
Sequence (Q14994 whole entry, looked up): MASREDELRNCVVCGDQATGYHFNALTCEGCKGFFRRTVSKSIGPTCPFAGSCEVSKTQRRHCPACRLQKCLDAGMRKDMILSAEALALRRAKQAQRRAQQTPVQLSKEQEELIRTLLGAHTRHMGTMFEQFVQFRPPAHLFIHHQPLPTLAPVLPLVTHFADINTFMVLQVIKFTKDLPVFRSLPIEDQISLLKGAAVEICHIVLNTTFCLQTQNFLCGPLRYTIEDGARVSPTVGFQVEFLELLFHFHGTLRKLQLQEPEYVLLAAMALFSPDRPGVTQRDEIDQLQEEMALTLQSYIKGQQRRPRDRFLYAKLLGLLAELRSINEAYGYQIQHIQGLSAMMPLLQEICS
ASSAY OVERVIEW: qHTS assay to identify small molecule agonists of the constitutive androstane receptor (CAR) signaling pathway (AID 1224839); also: nearly all actives have a fitted effect of over 15% in size;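 as to activation: HepG2 cells stably carrying human CAR and a CYP2B6 luciferase reporter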
TEST SETTINGS: HepG2 hCAR CYP2B6-luciferase, agonist mode, 24 h; series mostly up to 42.5 µM
Records with an inconclusive call do not appear. Calls of active or inactive are those of the source. The call rests on the fitted dose curve; in most records, active means well fitted activation curve with a large enough effect in the repeat runs; inconclusive means weak or mixed curves; inactive means no such curve, though single readings can be large or run the other way.
Result category, one only: active, inactive

These solved cases illustrate the format of a correct answer.
C[C@H]1C[C@H]2[C@@H]3CCC4=CC(=O)C=C[C@]4(C)[C@@]3(Cl)[C@@H](O)C[C@]2(C)[C@@]1(O)C(=O)CO; inactive
C[N+]1(C)CCC(OC(=O)C(O)(c2ccccc2)C2CCCC2)C1 (stereo unspecified); inactive
CC(=O)NO; inactive
CN(C)CCOC(c1ccccc1)c1ccc(Br)cc1 (stereo unspecified); inactive
O=C(c1ccc(F)cc1)C1CCN(CCn2c(=S)[nH]c3ccccc3c2=O)CC1; inactive
CC(C)Nc1ccc(NC(C)C)c2c1C(=O)c1ccccc1C2=O; inactive
O=C(OCCc1ccccc1)c1ccccc1; inactive
C=C(C)C(=O)OCCO; inactive
Nc1ccccc1S(=O)(=O)c1ccccc1; active
Brc1c2ccccc2cc2ccccc12; active

input: Check the results log: what was the call for CCC(Cl)CCC(Cl)C(Cl)CC(Cl)C(Cl)C(Cl)CCl (stereo unspecified) ?
output: inactive

input: Check the results log: what was the call for NCc1ccccc1Sc1ccccc1CO ?
output: inactive

input: Check the results log: what was the call for COc1cccc(N(C)C(=S)Oc2ccc3c(c2)CCCC3)n1 ?
output: inactive

input: Check the results log: what was the call for CCN(CC)CCOC(=O)C(c1ccccc1)C1CCCCC1 (stereo unspecified) ?
output: inactive

* * *

ASSAY OVERVIEW: qHTS assay to identify small molecule agonists of the hypoxia (HIF-1) signaling pathway - cell viability counter screen (AID 1224844); also: nearly all actives have a fitted effect of over 50% in size
TEST SETTINGS: HRE-bla ME-180 viability, CellTiter-Glo luminescence, 17 h; series mostly up to 76.8 µM
Records with an inconclusive call do not appear. Activity calls are given as the source filed them. Calls come from the whole dose curve.
MEASUREMENT KIND: outcome

Examples with answers:
C[N+]1(CC2COC(c3ccccc3)(C3CCCCC3)O2)CCCCC1 (stereo unspecified); inactive
OC(C#CCN1CCCC1)(c1ccccc1)c1ccccc1; inactive
NS(=O)(=O)c1ccc(N2CCCCS2(=O)=O)cc1; inactive
CCCCCCCCCCCc1ccccc1; inactive
C=CCOC(=O)CCC1CCCCC1; inactive

Let us examine a further case.
input: Recorded outcome for CC(C)C[C@H]1C(=O)N2CCC[C@H]2[C@]2(O)O[C@](NC(=O)[C@@H]3C=C4c5cccc6[nH]c(Br)c(c56)C[C@H]4N(C)C3)(C(C)C)C(=O)N12 , please?
output: inactive
